Cited source for all entries: patent US11427591B2

System: primary tumor cells freshly isolated from patient derived xenograft tumor model
Experiment: Cholangiocarcinoma (bile duct cancer) tumor chemosensitivity assay (TCA), anti-proliferation
Format: cell-based
Conditions: Homo sapiens, 144 h; Day 6; read-out: IC50
TEST READOUT: IC50 (µM)
Expressed in µM, but write only the number.

Requested field: IC50. Item: Cc1nc(Nc2ncc(C(=O)Nc3c(C)cccc3Cl)s2)cc(N2CCN(CCO)CC2)n1 [Dasatinib, reference compound] 15.2

* * *

Test system: LX-2 cells
Assay: Cytotoxicity, CellTiter-Glo Luminescent Cell Viability Assay
# key: entry, value: CC50
Expressed in nM, but write only the number.

Sample records with CC50:
>>> measurement("Cc1ccc2c(Nc3cc(CNC4CC4)cc(C(F)(F)F)c3)noc2c1C#Cc1cnc2cccnn12")
1360
>>> measurement("Cc1ccc2c(Nc3cccc(C(C)(C)C#N)c3)noc2c1C#Cc1cnc2cccnn12")
1900
>>> measurement("Cc1ccc2c(Nc3cc(CN4CCCC4)cc(C(F)(F)F)c3)noc2c1C#Cc1cnc2cccnn12")
4250

Now examine the next entry.
Requested field: CC50. Item: Cc1ccc2c(Nc3cccc(OC(F)(F)F)c3)noc2c1C#Cc1cnc2cccnn12 2410

* * *

System: LX-2 cells
Experiment: Cytotoxicity, CellTiter-Glo Luminescent Cell Viability Assay
TEST READOUT: CC50

Sample records with CC50:
>>> measurement("Cc1ccc2c(Nc3cc(CN4CCOCC4)cc(C(C)(C)C#N)c3)noc2c1C#Cc1cnc2cccnn12 [Compound 117]")
"> 57.2 µM"
>>> measurement("Cc1ccc2c(Nc3cc(CN4CCOCC4)cc(C(F)(F)F)c3)noc2c1C#Cc1cnc2cccnn12 [Compound 111]")
"> 42.3 µM"

Now examine the next entry.
Requested field: CC50. Item: Cc1ccc2c(Nc3cncc(C(F)(F)F)c3)noc2c1C#Cc1cnc2cccnn12 [Compound 121] > 40 µM
